Entries and their LD50 at 336 h values follow.
assay: Acute toxicity in mice; details: mouse, in vivo, iv, observation time 14 days
Counter-ions that a name gives are not always drawn.
Reply numerically in mg/kg, unit not repeated.

compound | unit-name | readout-number
COc1ccc(CCN(C)CCCN2Cc3cc(OC)c(OC)cc3C2=O)cc1OC [A, hydrochloride] | mg/kg | 98

Input: Look up LD50 at 336 h for this compound: COc1ccc(CCN(C)CCCN2Cc3cc(OC)c(OC)cc3S2(=O)=O)cc1OC [B, hydrochloride]
Output: 100
